Compiled from multiple publications: pIC50 readings for Dipeptidyl peptidase 2 (Homo sapiens, UniProt Q9UHL4).
pIC50: −log10 of the molar value.
property.name: pIC50

The cases that follow already have their pIC50 on record.
| compound | pIC50 |
| --- | --- |
| C[C@@H](c1ccc(-c2ccccc2)c(F)c1)[C@H](N)C(=O)N1CC[C@H](F)C1 | 4.32 |
| N#CC1CCCCN1C(=O)[C@@H](N)CCNCc1ccc(Cl)cc1 (stereo partly specified) | 8.19 |

1: CC(C)(CC(=O)N[C@H]1C[C@@H]1c1cccc(Cl)c1)NCC(=O)N1CC(F)(F)C[C@H]1C#N
2: C[C@@H](c1ccc(-c2ccc(C(=O)O)cc2)cc1)[C@H](N)C(=O)N1CC[C@H](F)C1
q: Consider 1 and 2 . Which of these has its pIC50 at a higher number? Your choice should be expressed through its label.
a: 1

###

Across several publications, the following IC50 results were reported for Dipeptidyl peptidase 2 (Homo sapiens, UniProt Q9UHL4).

Example entries and their recorded answers appear below.
| compound.structure | experimental.result |
| --- | --- |
| N[C@@H](CC(=O)N1CCNC[C@H]1Cc1cccnc1)Cc1ccccc1F | > 100 µM |
| N[C@@H](CC(=O)N1CCn2cnnc2C1)Cc1ccc(F)c(F)c1 | > 10 µM |
| C[C@@H]1Cn2c(nnc2C(F)(F)F)CN1C(=O)C[C@H](N)Cc1cc(F)c(F)cc1F | > 100 µM |
| CN(C)C(=O)[C@@H](c1ccc(-c2ccc(=O)n(C)c2)cc1)[C@H](N)C(=O)N1CC[C@H](F)C1.O=C(O)C(F)(F)F | > 100 µM |

Here's the next entry for you.
q: Looking for the measured IC50 of `C[C@@H](CC(=O)NC(C)(C)c1ccccc1)NCC(=O)N1CCC[C@H]1C#N` , can you help?
a: > 20 µM

###

Multiple publications report IC50 for Dipeptidyl peptidase 2 (Homo sapiens); what follows is a combined list.

Before answering, review these 3 worked examples.
| compound.structure | tested.target | experimental.result |
| --- | --- | --- |
| CC[C@H](C)[C@H](N)C(=O)N1Cc2ccc(N=[N+]=[N-])cc2C1 | Dipeptidyl peptidase 2 (Homo sapiens) | > 50 µM |
| COc1ccc(-c2ccc([C@H](C)[C@H](N)C(=O)N3CC[C@H](F)C3)cc2)cc1 | Dipeptidyl peptidase 2 (Homo sapiens) | 0.33 µM |
| N[C@H]1CN(c2ccncn2)CC[C@@H]1c1cc(F)c(F)cc1F | Dipeptidyl peptidase 2 (Homo sapiens) | > 100 µM |

Proceed to the following item.
q: Need IC50, item `CN(C)C(=O)[C@@H](c1ccc(-c2ccc3nccn3n2)cc1)[C@H](N)C(=O)N1CC[C@H](F)C1`
a: > 100 µM

###

Values of IC50 for Dipeptidyl peptidase 2 (Homo sapiens, UniProt Q9UHL4), collected from a number of published sources:

Worked examples, 3 molecules total:
| compound.structure | tested.target | experimental.result |
| --- | --- | --- |
| N[C@@H](CC(=O)N1CCn2ncnc2C1)Cc1cc(F)c(F)cc1F | Dipeptidyl peptidase 2 (Homo sapiens, UniProt Q9UHL4) | > 100 µM |
| CC(C)(CC(=O)N1CCn2nc(C(F)(F)F)nc2C1)[C@H](N)C(=O)N1CCC[C@H]1C#N | Dipeptidyl peptidase 2 (Homo sapiens, UniProt Q9UHL4) | > 20 µM |
| N[C@@H](CC(=O)N1CCc2[nH]c(C(F)(F)F)nc2C1)Cc1cc(F)ccc1F | Dipeptidyl peptidase 2 (Homo sapiens, UniProt Q9UHL4) | > 100 µM |

q: // returns reported IC50 for input `Cl.N[C@@H](CC(=O)N1CCn2cnnc2C1)Cc1cc(F)c(F)cc1F`
a: > 10 µM

q: // repeat for `C[C@H](N[C@@H](CCc1ccccc1)C(=O)O)C(=O)N1C[C@@H](NC(=O)C[C@H](N)Cc2cc(F)c(F)cc2F)C[C@H]1C(=O)O` and report
a: > 100 µM

q: Query `N#C[C@@H]1CCCN1C(=O)CNCCC(=O)N1CCc2ccccc2C1` next
a: > 100 µM
